Values were extracted from patent US7829560B2.

target: p38α (Homo sapiens, UniProt Q16539); construct: p38 MAP Kinases are recombinant human full-length proteins with an amino-terminal GST fusion; GST (N); purchased Upstate Biotechnology Inc; host or cells: E. coli; assay: p38 MAP Kinase assay: inhibition of ATF2 phosphorylation, ELISA; format: biochemical; details: 10 uM; substrate ATF2; read-out: [ENZ] P38 ALPHA, PCT INH, ELISA (10 uM;ATF2) (Percent)
Sequence (Q16539 whole entry, the tested form may be a part): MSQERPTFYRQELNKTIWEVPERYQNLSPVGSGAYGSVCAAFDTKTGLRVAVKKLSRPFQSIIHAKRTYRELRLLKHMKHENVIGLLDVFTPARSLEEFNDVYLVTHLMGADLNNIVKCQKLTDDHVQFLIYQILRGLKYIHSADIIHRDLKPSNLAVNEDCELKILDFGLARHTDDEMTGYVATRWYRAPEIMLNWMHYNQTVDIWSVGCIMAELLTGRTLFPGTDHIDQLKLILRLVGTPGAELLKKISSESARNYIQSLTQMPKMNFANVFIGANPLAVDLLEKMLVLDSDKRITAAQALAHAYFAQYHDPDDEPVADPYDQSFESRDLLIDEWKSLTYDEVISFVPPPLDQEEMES
Listing: inhibition at 10 µM of selected compounds
readout_label: inhibition at 10 µM (%)

{"smiles_input": "O=C(Nc1ccc(OCCN2CCOCC2)c2ccccc12)c1ccc(CN2CCS(=O)(=O)CC2)cc1", "readout_value": 10.5}
{"smiles_input": "CN1CCN(CCOc2ccc(NC(=O)c3ccnc(Cl)c3)c3ccccc23)CC1", "readout_value": 7.5}
{"smiles_input": "Cc1cc(C(=O)Nc2ccc(OCCN3CCOCC3)c3ccccc23)cc(N2CCC(N3CCCC3)CC2)n1", "readout_value": 0}
{"smiles_input": "O=C(Nc1ccc(OCCN2CCOCC2)c2ccccc12)c1cccc(-c2ccc(C3CCCCC3)cc2)c1", "readout_value": 0}

----------
target: p38α (Homo sapiens); construct: p38 MAP Kinases are recombinant human full-length proteins with an amino-terminal GST fusion; GST (N); purchased Upstate Biotechnology Inc; host or cells: E. coli; experiment: p38 MAP Kinase assay: inhibition of ATF2 phosphorylation, ELISA; assay type: biochemical; conditions: 10 uM; substrate ATF2; read-out: [ENZ] P38 ALPHA, PCT INH, ELISA (10 uM;ATF2) (Percent)
Reported inhibition at 10 µM values are given for each entry in this list.

{"molecule": "CN1CCN(CCOc2ccc(NC(=O)c3ccc(CN4CCS(=O)(=O)CC4)cc3)c3ccccc23)CC1 [Compound B13]", "unit_label": "%", "inhibition at 10 µM": 11.5}
{"molecule": "O=C(Nc1ccc(OCCN2CCOCC2)c2ccccc12)c1cccc(N2CCOCC2)n1 [Compound B134]", "unit_label": "%", "inhibition at 10 µM": 20}
{"molecule": "O=C(Nc1ccc(OCCN2CCOCC2)c2ccccc12)c1cc(F)cc(C(F)(F)F)c1 [Compound B77]", "unit_label": "%", "inhibition at 10 µM": 28}
{"molecule": "CC(C)(C)CNc1cccc(C(=O)Nc2ccc(OCCN3CCOCC3)c3ccccc23)c1 [Compound B173]", "unit_label": "%", "inhibition at 10 µM": 89.5}
{"molecule": "O=C(Nc1ccc(OCCN2CCCCC2)c2ccccc12)c1ccc(-n2ccc(C(F)(F)F)n2)cc1 [Compound B10]", "unit_label": "%", "inhibition at 10 µM": 12.5}
{"molecule": "O=C(Nc1ccc(OCCN2CCSCC2)c2ccccc12)c1ccc(-n2cccn2)cc1 [Compound B11]", "unit_label": "%", "inhibition at 10 µM": 24}
{"molecule": "O=C(Nc1ccc(OCCN2CCOCC2)c2ccccc12)c1cccc(N2CCOCC2)c1 [Compound B169]", "unit_label": "%", "inhibition at 10 µM": 77.5}
{"molecule": "O=C(Nc1ccc(OCCN2CCOCC2)c2ccccc12)c1cccc(/C=C/c2ccccc2)c1 [Compound B98]", "unit_label": "%", "inhibition at 10 µM": 15}
{"molecule": "O=C(Nc1ccc(OCCN2CCOCC2)c2ccccc12)c1cccc(-c2cccc(OCc3ccccc3)c2)c1 [Compound B119]", "unit_label": "%", "inhibition at 10 µM": 11}
{"molecule": "O=C(Nc1ccc(OCCN2CCOCC2)c2ccccc12)c1cccc2c1C(=O)c1ccccc1-2 [Compound B74]", "unit_label": "%", "inhibition at 10 µM": 31}
{"molecule": "O=C1CN(CCOc2ccc(NC(=O)c3cc(F)cc(N4CCCCC4)c3)c3ccccc23)CCN1 [Compound B164]", "unit_label": "%", "inhibition at 10 µM": 83.5}
{"molecule": "CCc1ccc(-c2cccc(C(=O)Nc3ccc(OCCN4CCOCC4)c4ccccc34)c2)cc1 [Compound B102]", "unit_label": "%", "inhibition at 10 µM": 21}
{"molecule": "O=C(Nc1ccc(OCCN2CCOCC2)c2ccccc12)c1cccc(N2CCCCC2)n1 [Compound B142]", "unit_label": "%", "inhibition at 10 µM": 33}
{"molecule": "O=C(Nc1ccc(OCCN2CCOCC2)c2ccccc12)c1cccc(-c2ccc(F)cc2F)c1 [Compound B100]", "unit_label": "%", "inhibition at 10 µM": 86}
{"molecule": "N#Cc1cccc(-c2cccc(C(=O)Nc3ccc(OCCN4CCOCC4)c4ccccc34)c2)c1 [Compound B110]", "unit_label": "%", "inhibition at 10 µM": 61}
{"molecule": "O=C(Nc1ccc(OCCN2CCSCC2)c2ccccc12)c1ccc(CN2CCS(=O)(=O)CC2)cc1 [Compound B17]", "unit_label": "%", "inhibition at 10 µM": 30.5}
